What mass density was measured for each of the following?
assay: xn = mol fraction of the nth substance listed; settings: 298.15 K; 101.3 kPa; Liquid; Pycnometric method; x1 = 0.2
One number for each entry, in kg/m3.

[
  {
    "compound": "C[N+](C)(C)CCO.[Cl-] [choline chloride] + OCCOCCO",
    "resultType": "mass density",
    "result": 1112.1
  }
]

Dear reader, for each entry below, please note its mass density.
1. CCCC[N+](CCCC)(CCCC)CCCC.[Br-] [tetrabutylammonium bromide] + OCCO
2. CCCC[N+](CCCC)(CCCC)CCCC.[Br-] [tetrabutylammonium bromide] + OCCOCCO
3. CCCC[N+](CCCC)(CCCC)CCCC.[Br-] [tetrabutylammonium bromide] + CN(CCO)CCO

Key:
1. 1072.7
2. 1081.8
3. 1056.9

====

assay: xn = mol fraction of the nth substance listed; settings: 298.15 K; 101.3 kPa; Liquid; Pycnometric method; x1 = 0.25
resultType: mass density (kg/m3)
One number for each entry, in kg/m3.

[
  {
    "compound": "CCCC[N+](CCCC)(CCCC)CCCC.[Br-] [tetrabutylammonium bromide] + OCCO",
    "resultType": "mass density",
    "result": 1069.8
  },
  {
    "compound": "C[N+](C)(C)CCO.[Cl-] [choline chloride] + OCCOCCO",
    "resultType": "mass density",
    "result": 1116.9
  },
  {
    "compound": "CCCC[N+](CCCC)(CCCC)CCCC.[Br-] [tetrabutylammonium bromide] + CN(CCO)CCO",
    "resultType": "mass density",
    "result": 1051.3
  }
]

Exercise: Item CCCC[N+](CCCC)(CCCC)CCCC.[Br-] [tetrabutylammonium bromide] + OCCOCCO has what recorded mass density?
Key: 1078.2
